Biological target: Sphingosine 1-phosphate receptor 5 (Homo sapiens)
Sequence (Q9H228 whole entry): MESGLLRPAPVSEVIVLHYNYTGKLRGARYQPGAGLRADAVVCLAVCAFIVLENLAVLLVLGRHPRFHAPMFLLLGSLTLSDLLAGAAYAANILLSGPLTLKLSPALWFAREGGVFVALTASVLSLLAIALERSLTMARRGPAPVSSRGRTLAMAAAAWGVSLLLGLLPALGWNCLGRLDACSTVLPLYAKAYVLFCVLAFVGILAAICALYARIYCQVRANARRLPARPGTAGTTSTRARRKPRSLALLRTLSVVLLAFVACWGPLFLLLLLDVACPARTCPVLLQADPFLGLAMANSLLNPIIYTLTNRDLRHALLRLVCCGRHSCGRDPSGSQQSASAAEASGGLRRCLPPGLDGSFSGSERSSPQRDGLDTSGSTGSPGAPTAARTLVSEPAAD
Assay: Agonist activity at recombinant human S1PR5 expressed in CHO cell membranes assessed as [35S]GTP-gammaS binding measured after 1.5 hrs by TopCount scintillation counting method
property: EC50 (µM)

1) CCc1ccccc1-c1cccc2cc(CNCC(N)C(=O)O)sc12 (stereo not drawn) : 1.56

I. O=C(O)CCCNCc1cc2cccc(-c3cccc4ccccc34)c2s1
II. CC(CNCc1cc2cc(-c3ccc4ccccc4c3)ccc2s1)C(=O)O (stereo not drawn)
Select one. Lower EC50: I or II Indicate which entry you chose by stating its label.
II
(II: 0.232 µM, I: 2.32 µM)

====

Biological target: Sphingosine 1-phosphate receptor 5 (Homo sapiens)
Assay: Agonist activity at recombinant human S1PR5 expressed in CHO cell membranes assessed as [35S]GTP-gammaS binding measured after 1.5 hrs by TopCount scintillation counting method
pEC50: −log10 of the molar value.
property: pEC50

The cases that follow already have their pEC50 on record.
1) O=C(O)C1CN(Cc2cc3cc(-c4ccc5ccccc5c4)ccc3s2)C1 : 7.66
2) O=C(O)CCCCNCc1cc2cccc(-c3ccc4ccccc4c3)c2s1 : 6.39
3) O=C(O)CCCNCc1cc2cccc(-c3ccc(C(F)(F)F)cc3)c2s1 : 6.26

I. CCc1ccccc1-c1cccc2sc(CNc3ccc(CC(=O)O)cc3)cc12
II. NC(CNCc1cc2cccc(-c3ccc4ccccc4c3)c2s1)C(=O)O (stereo unspecified)
So which one has the bigger pEC50 here, I or II ? Indicate which entry you chose by stating its label.
II
(II: 5.97, I: 5.32)
